Data credit: the RNAGym collection of RNA variant scans (doi:10.7554/elife.90254)

B1: LINE1-full (parent)
chain: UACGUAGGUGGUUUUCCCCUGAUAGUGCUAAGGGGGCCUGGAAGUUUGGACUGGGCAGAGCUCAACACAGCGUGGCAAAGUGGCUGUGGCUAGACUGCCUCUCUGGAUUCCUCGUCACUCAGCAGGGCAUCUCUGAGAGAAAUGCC

- Variants of: B1
- TEST_DETAILS: self-cleavage, relative activity (ratio to wild type); higher = more cleavage; in vitro, sequencing; the parent is a self-cleaving ribozyme
Each record here notes measured self-cleavage.
Could you keep your reply to the number by itself?

Recorded results for 10 variants are shown here.
{"columns": ["VARIANT_SPEC", "self-cleavage"],
 "data": [
  ["A2G U45C", 1.19],
  ["U96C A121G", 0.12],
  ["U52C U143C", 1.67],
  ["A59U A141G", 0.96],
  ["U9C A77U", 1.19],
  ["G53A A136U", 1.47],
  ["U15C A136G", 1.52],
  ["U39C A78U", 1.42],
  ["U15A G55C", 0.15],
  ["A42G A107G", 1.7]
]}

// query Given the entry G34A A142G , report its measured self-cleavage.
// result 1.45

// query Another variant to look at: G32U C116U
// result 1.15

// query Another variant to look at: U29A G126A
// result 0.75

// query Another variant to look at: U62A C128U
// result 0.03

// query Another variant to look at: A42G U104A
// result 1.13

// query Another variant to look at: U81C A141G
// result 1.07

// query Another variant to look at: U81C G139A
// result 1.63

// query Another variant to look at: G36U U143C
// result 1.16

// query Another variant to look at: U39C A129G
// result 1.61

// query Another variant to look at: U134A U143A
// result 0.77

// query Another variant to look at: U9C A140U
// result 1.35

// query Another variant to look at: U9C A31U
// result 1.2

// query Another variant to look at: G21A A117U
// result 1.55
